# assayedSystem: UniProt:P25090
# Sequence (P25090 whole entry): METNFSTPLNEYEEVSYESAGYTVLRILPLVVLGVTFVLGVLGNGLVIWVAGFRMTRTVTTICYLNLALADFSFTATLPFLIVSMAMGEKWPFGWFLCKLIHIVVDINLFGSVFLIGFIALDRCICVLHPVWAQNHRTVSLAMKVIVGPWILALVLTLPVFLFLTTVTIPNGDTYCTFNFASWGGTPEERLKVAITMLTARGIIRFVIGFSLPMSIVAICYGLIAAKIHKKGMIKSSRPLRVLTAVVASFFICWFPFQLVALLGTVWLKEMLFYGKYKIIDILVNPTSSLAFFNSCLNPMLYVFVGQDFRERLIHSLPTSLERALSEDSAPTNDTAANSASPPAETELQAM
# procedureSummary: Intracellular calcium measurements (FLIPR), agonistic activity in HEK293-hALXR-Gα16 cells
# experimentalContext: Fluo-4 calcium FLIPR, normalized to WKYMVm 10 nM
pEC50: −log10 of the molar value.
Label rule, in plain words: pEC50 of 7 and up is y, under 7 is n.

As a guide, the following entries are already answered.
{"molecule": "CC1CCC(C)N1CCCCNC(=O)[C@H]1[C@H](C(=O)Nc2ccc(Br)cc2)[C@@H]2C=C[C@H]1C21CC1 (stereo partly drawn)", "categoryLabel": "y"}
{"molecule": "CN1CCN(CCCNC(=O)[C@H]2[C@H](C(=O)Nc3ccc(Br)cc3)[C@@H]3C=C[C@H]2C32CC2)CC1 (racemic)", "categoryLabel": "y"}
{"molecule": "O=C(NCCCCN1CCCC1)[C@H]1[C@H](C(=O)Nc2ccc(Br)c(C(F)(F)F)c2)[C@@H]2C=C[C@H]1C21CC1", "categoryLabel": "n"}

With those in mind, consider the next molecule.
Test whether the molecule O=C(NCCCCN1CCCC1)C1C(C(=O)NCCCn2ccnc2)C2C=CC1C21CC1 (stereo not drawn) records pEC50 of 7 or higher.
n

Data origin, for the record: patent US8563714B2
